Test system: SF-539 CNS
experimentSummary: NCI tumour cell line growth inhibition, 48 h
# TGI values compiled below
Just the number in µM, nothing appended.

structureSmilesString | measurementUnit | TGI
c1cncc(CNc2ccccc2-c2nnc(Nc3ccc4c(c3)OCO4)o2)c1 | µM | 0.539

Next molecule, TGI to be filled in.
Lookup: Given the entry COc1ccc(CN2c3ccccc3Sc3ccccc32)cc1F , report its measured TGI.
Found: 5.58

====

System: SK-MEL-28 melanoma | Read-out: GI50

// worked examples, GI50 included
compound | reading
COc1cc(/C=C/C(=O)C(=Cc2ccc(F)c(F)c2)C(=O)/C=C/c2ccc(O)c(OC)c2)ccc1O | 1.87 µM
O=C(CCCn1c2c(sc3ncccc32)c(=O)n2nnc(-c3ccccc3)c12)NCCc1cnc[nH]1 | 17 µM
O=C(Oc1cccnc1)c1ccccc1Nc1ccnc(C(F)(F)F)c1 | 0.483 µM

Lookup: // lookup GI50 | system=SK-MEL-28 melanoma | key= N/C(=N\O)c1ncc(-c2ccc(C(F)(F)F)cc2)c(NC2CCCCCC2)n1
Found: 5.38 µM

Lookup: Form: Entry = COc1cc2cc(c1Cl)N(C)C(=O)CC(OC(=O)C(C)C)C1(C)OC1C(C)C1CC(O)(NC(=O)O1)C(OC)/C=C/C=C(C)C2 (stereo not given) | System = SK-MEL-28 melanoma | GI50 = ____
Found: 17.6 µM

Lookup: # returns recorded GI50 (system: SK-MEL-28 melanoma) for CCN(CC)CCN1C(=O)c2cccc3c(-c4ccc5c(c4)ncn5C4CCCCC4)ccc(c23)C1=O
Found: 1.63 µM

Lookup: // map C=CCN1C(=O)/C(=c2\sc3n(c2=O)C2C(NN=3)N(CC)C(=O)N2CC)c2ccccc21 (stereo not given) to recorded GI50 (system: SK-MEL-28 melanoma)
Found: 5.36 µM

Lookup: Form: Entry = COC1=C(OC)C(=O)C(/C=C(\C)C(=O)O)=C(C)C1=O | System = SK-MEL-28 melanoma | GI50 = ____
Found: > 100 µM

Lookup: Any idea what GI50 came out for O=C1NC(=NCC(CO)c2ccccc2)S/C1=C\c1ccc2ncccc2c1 (stereo not given) on SK-MEL-28 melanoma?
Found: > 25 µM

Lookup: Lab note: need GI50 with SK-MEL-28 melanoma for entry COc1cc(CNC(=O)/C=C/C=C/c2ccc3c(c2)OCO3)ccc1OCc1cn(-c2ccc(Cl)c(Cl)c2)nn1 , please look it up.
Found: 1.67 µM

Lookup: Quick check: GI50 on SK-MEL-28 melanoma, item COC(=O)/C(C#N)=C\N1CCN(C(=O)c2ccco2)C1=S ?
Found: 13 µM

Lookup: Please tell me: GI50 of CCCc1cc(=O)oc2c(C(=O)CC(C)C)c(O)c(CC=C(C)C)c(O)c12 , system SK-MEL-28 melanoma?
Found: 6.21 µM
